Molecular target: P2Y12 receptor (Homo sapiens)
Construct: expressed in transfected cells; host or cells: CHO cells (membranes)
Experiment: Functional inhibition of 2-Me-S-ADP induced P2Y12 signalling (35S-GTPγS, cell membranes from P2Y12 transfected CHO-cells)
Assay type: biochemical
Conditions: EC80 concentration of agonist 2-methyl-thio-adenosine diphosphate, 30° C., 45 min
Description: Functional inhibition of-the P2Y12 receptor can be measured by in vitro assays using cell membranes from P2Y12 transfected CHO-cells, the methodology is indicated below. Functional inhibition of 2-Me-S-ADP induced P2Y12 signalling: 5 μg of membranes were diluted in 200 μl of 200 mM NaCl, 1 mM MgCl2, 50 mM HEPES (pH 7.4), 0.01% BSA, 30μg/ml saponin and 10 μM GDP. […]
assay endpoint: IC50 (µM)

Illustrative cases are given below, each with its answer.
input: Provide IC50 value for the following molecule: CCOC(=O)c1cc(C#N)c(N2CC(C(=O)NS(=O)(=O)Cc3ccccc3F)C2)nc1OCC
output: 0.031

input: Indicate its recorded IC50; the molecule in question is CCOC(=O)c1cc(C#N)c(N2CCC(C(=O)NS(=O)(=O)Cc3ccccc3)CC2)nc1COCc1ccccc1
output: 0.055

A: CCOC(=O)c1cc(C#N)c(N2CC(C(=O)NS(=O)(=O)Cc3cccc(F)c3)C2)nc1OC
B: CCOC(=O)c1cc(C#N)c(N2CCC(C(=O)NS(=O)(=O)Cc3ccccc3)CC2)nc1SC
input: // max by IC50 over [ A , B ] Mark your selection by writing its label.
output: A
(A: 0.044 µM, B: 0.0077 µM)

---

Molecular target: P2Y12 receptor (Homo sapiens, UniProt Q9H244)
Construct: expressed in transfected cells; host or cells: CHO cells (membranes)
Sequence (Q9H244 whole entry): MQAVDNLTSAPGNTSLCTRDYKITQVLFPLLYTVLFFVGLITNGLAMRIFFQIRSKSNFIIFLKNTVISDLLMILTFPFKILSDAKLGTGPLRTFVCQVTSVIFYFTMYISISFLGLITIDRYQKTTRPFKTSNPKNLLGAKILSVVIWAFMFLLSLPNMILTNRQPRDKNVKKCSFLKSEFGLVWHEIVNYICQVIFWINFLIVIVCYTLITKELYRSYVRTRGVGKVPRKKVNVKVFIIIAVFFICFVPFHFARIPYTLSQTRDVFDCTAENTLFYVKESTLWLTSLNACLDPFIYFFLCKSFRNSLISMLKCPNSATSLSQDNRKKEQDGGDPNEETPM
Test: Functional inhibition of 2-Me-S-ADP induced P2Y12 signalling (35S-GTPγS, cell membranes from P2Y12 transfected CHO-cells)
Type: biochemical
Conditions: EC80 concentration of agonist 2-methyl-thio-adenosine diphosphate, 30° C., 45 min
assay endpoint: IC50 (µM)

input: Provide measured IC50 on P2Y12 receptor (Homo sapiens, UniProt Q9H244) for CC(C)OC(=O)c1cc(C#N)c(N2CCC(C(=O)NS(=O)(=O)Cc3ccccc3)CC2)nc1C#N please.
output: 0.016

I: CCOC(=O)c1cc(Cl)c(N2CCC(C(=O)NS(=O)(=O)Cc3ccc(Cl)cc3)CC2)nc1SC
II: CCOC(=O)c1cc(C#N)c(N2CC(C(=O)NS(=O)(=O)Cc3ccccc3)C2)nc1SC
input: Of the two listed items, I and II , which carries the larger IC50 figure? Lab note: record the label of whichever item you select.
output: I

1: CCOC(=O)c1cc(C#N)c(N2CCC(C(=O)NS(=O)(=O)Cc3ccc(F)cc3F)CC2)nc1OC
2: CCOC(=O)c1cc(C#N)c(N2CC(C(=O)NS(=O)(=O)Cc3ccccc3)C2)nc1COCc1ccc(OC)c(OC)c1
input: Smaller IC50 value, 1 vs 2 ? Your answer should be the label attached to the chosen record.
output: 1
(1: 0.008 µM, 2: 0.135 µM)

---

Biological target: P2Y12 receptor (Homo sapiens, UniProt Q9H244)
Construct: expressed in transfected cells; host or cells: CHO cells (membranes)
Test: Functional inhibition of 2-Me-S-ADP induced P2Y12 signalling (35S-GTPγS, cell membranes from P2Y12 transfected CHO-cells)
Format: biochemical
Settings: EC80 concentration of agonist 2-methyl-thio-adenosine diphosphate, 30° C., 45 min
assay endpoint: IC50 (µM)

Here's what some known entries look like.
input: Fill in IC50 for record CCOC(=O)c1cc(C#N)c(N2CC(C(=O)NS(=O)(=O)Cc3ccc(F)cc3)C2)nc1OC
output: 0.009

input: Give a short answer stating reported IC50 for CCOC(=O)c1cc(C#N)c(N2CC(C(=O)NS(=O)(=O)Cc3ccc(F)cc3F)C2)nc1OC .
output: 0.01

input: Note down IC50 recorded for CCOC(=O)c1cc(C#N)c(N2CCC(C(=O)NS(=O)(=O)Cc3ccc(F)cc3Cl)CC2)nc1OC
output: 0.024

input: Give a short answer stating reported IC50 for CCOC(=O)c1cc(C#N)c(N2CCC(C(=O)NS(=O)(=O)Cc3ccc(C(F)(F)F)cc3)CC2)nc1OC .
output: 0.019

input: Could you please provide reported IC50 for CCOC(=O)c1cc(C#N)c(N2CCC(C(=O)NS(=O)(=O)Cc3ccccc3)CC2)nc1SCC ? Thanks!
output: 0.006

A: CCOC(=O)c1cc(Cl)c(N2CCC(C(=O)NS(=O)(=O)Cc3ccccc3)CC2)nc1Cl
B: CCOC(=O)c1cc(C#N)c(N2CC(C(=O)NS(=O)(=O)Cc3ccc(Cl)cc3)C2)nc1OC
C: CCOC(=O)c1cc(C#N)c(N2CCC(C(=O)NS(=O)(=O)Cc3ccccc3)CC2)nc1CCOC
input: Ascending sort, IC50. Please list the labels in the order you were asked to rank them.
output: B, A, C
(B: 0.006 µM, A: 0.033 µM, C: 0.06 µM)

---

Biological target: P2Y12 receptor (Homo sapiens)
Construct: expressed in transfected cells; host or cells: CHO cells (membranes)
Test: Functional inhibition of 2-Me-S-ADP induced P2Y12 signalling (35S-GTPγS, cell membranes from P2Y12 transfected CHO-cells)
Type: biochemical
Conditions: EC80 concentration of agonist 2-methyl-thio-adenosine diphosphate, 30° C., 45 min
assay endpoint: IC50 (µM)

input: Look up P2Y12 receptor (Homo sapiens) data: IC50 of CCOC(=O)c1cc(C#N)c(N2CC(C(=O)NS(=O)(=O)Cc3ccccc3)C2)nc1OC [Example 2] , then report it.
output: 0.018

input: Recall the reported IC50 of CCOCc1nc(N2CC(C(=O)NS(=O)(=O)Cc3ccccc3)C2)c(C#N)cc1C(=O)OCC [Example 33] on P2Y12 receptor (Homo sapiens) and write it down.
output: 0.069

input: Enter IC50 (test system P2Y12 receptor (Homo sapiens)) for CCOC(=O)c1cc(C#N)c(N2CCC(C(=O)NS(=O)(=O)Cc3ccc(F)c(F)c3)CC2)nc1OC [Example 14]
output: 0.013

input: Please tell me the measured IC50 for CCOC(=O)c1cc(C#N)c(N2CCC(C(=O)NS(=O)(=O)Cc3ccccc3)CC2)nc1Cn1ccnn1 [Example 48] ; system: P2Y12 receptor (Homo sapiens).
output: 0.032

input: Recall the reported IC50 of COc1nc(N2CCC(C(=O)NS(=O)(=O)Cc3ccccc3)CC2)c(C#N)cc1C(=O)OC(C)C [Example 60] on P2Y12 receptor (Homo sapiens) and write it down.
output: 0.027

input: Output reported IC50 of the compound CCOC(=O)c1cc(C#N)c(N2CC(C(=O)NS(=O)(=O)Cc3ccc(F)c(F)c3)C2)nc1OC [Example 27] on P2Y12 receptor (Homo sapiens).
output: 0.035

1: CCOC(=O)c1cc(C#N)c(N2CC(C(=O)NS(=O)(=O)Cc3ccccc3)C2)nc1OCC [Example 38]
2: CCOC(=O)c1cc(C#N)c(N2CC(C(=O)NS(=O)(=O)Cc3ccc(Cl)cc3F)C2)nc1OC [Example 31]
input: Which item exceeds the other in IC50, 1 or 2 ? Refer to your chosen item by its label in the answer.
output: 1
(1: 0.047 µM, 2: 0.005 µM)

---

Biological target: P2Y12 receptor (Homo sapiens)
Construct: expressed in transfected cells; host or cells: CHO cells (membranes)
Assay: Functional inhibition of 2-Me-S-ADP induced P2Y12 signalling (35S-GTPγS, cell membranes from P2Y12 transfected CHO-cells)
Format: biochemical
Details: EC80 concentration of agonist 2-methyl-thio-adenosine diphosphate, 30° C., 45 min
assay endpoint: IC50 (µM)

Below, each entry is followed by its recorded IC50 result.
input: Name the recorded IC50 of the item CCOC(=O)c1cc(C#N)c(N2CCC(C(=O)NS(=O)(=O)Cc3cccc(F)c3)CC2)nc1OC [Example 10] in your answer.
output: 0.016

input: Quickly give me recorded IC50 for CCOC(=O)c1cc(C#N)c(N2CCC(C(=O)NS(=O)(=O)Cc3ccc(F)cc3)CC2)nc1OC [Example 11]
output: 0.009

input: Fill in reported IC50 for this entry: COc1nc(N2CCC(C(=O)NS(=O)(=O)Cc3ccc(Cl)cc3)CC2)c(C#N)cc1C(=O)OC(C)C [Example 55]
output: 0.011

a: CCOC(=O)c1cc(C#N)c(N2CC(C(=O)NS(=O)(=O)Cc3ccc(F)cc3)C2)nc1OCC [Example 39]
b: CCOC(=O)c1cc(C#N)c(N2CCC(C(=O)NS(=O)(=O)Cc3ccc(Cl)cc3Cl)CC2)nc1OC [Example 15]
input: I'm curious, which of these has a smaller IC50 number: a or b ? Mark your selection by writing its label.
output: b
(b: 0.022 µM, a: 0.032 µM)

a: CCCC(=O)c1cc(C#N)c(N2CCC(C(=O)NS(=O)(=O)Cc3ccccc3)CC2)nc1OC [Example 53]
b: CCOC(=O)c1cc(C#N)c(N2CCC(C(=O)NS(=O)(=O)Cc3ccccc3Cl)CC2)nc1OC [Example 9]
c: CCOC(=O)c1cc(C#N)c(N2CCC(C(=O)NS(=O)(=O)Cc3ccccc3)CC2)nc1OC [Example 1]
d: CCCC(=O)c1cc(C#N)c(N2CCC(C(=O)NS(=O)(=O)Cc3ccc(F)cc3)CC2)nc1OC [Example 51]
e: CCOC(=O)c1cc(C#N)c(N2CC(C(=O)NS(=O)(=O)Cc3ccc(Cl)cc3Cl)C2)nc1OC [Example 28]
input: Reorder: IC50, max to min. Lab note: final answer is the ordered label list.
output: a, d, b, c, e
(a: 0.076 µM, d: 0.05 µM, b: 0.032 µM, c: 0.012 µM, e: 0.005 µM)

1: CCOC(=O)c1cc(C#N)c(N2CC(C(=O)NS(=O)(=O)c3ccccc3)C2)nc1OC [Example 20]
2: CCOC(=O)c1cc(C#N)c(N2CCC(C(=O)NS(=O)(=O)Cc3ccc(Cl)cc3F)CC2)nc1OC [Example 18]
3: CCOC(=O)c1cc(F)c(N2CCC(C(=O)NS(=O)(=O)Cc3ccccc3)CC2)nc1SC [Example 44]
4: CCOC(=O)c1cc(C#N)c(N2CCC(C(=O)NS(=O)(=O)Cc3ccccc3)CC2)nc1CO [Example 6]
input: Order the items by recorded IC50; the first position goes to the largest value. Field: ranking. Enter the labels in the order requested.
output: 1, 3, 4, 2
